Test system: rodent lifetime carcinogenesis bioassay, tumor incidence TD50
Test Method Notes: carcinogenic potency in animals, long-term in vivo studies, CPDB compilation (AID 1745844)
Assay Conditions: rat; strain Fischer 344; males; in feed; site: stomach, glandular; lesion: carcinoid tumor, malignant; dosed 104 weeks; study length 104 weeks

{"columns": ["Compound", "TD50"],
 "data": [
  ["CC(C)(Oc1ccc(C2CC2(Cl)Cl)cc1)C(=O)O (stereo unspecified)", "103 mg/kg/day"]
]}

----------
System: rodent lifetime carcinogenesis bioassay, tumor incidence TD50
Test Method Notes: carcinogenic potency in animals, long-term in vivo studies, CPDB compilation (AID 1745844)
Assay Conditions: mouse; strain B6C3F1; males; inhaled; site: lung; lesion: alveolar/bronchiolar adenoma; dosed 80 weeks; study length 105 weeks

{"columns": ["Molecule Smiles", "TD50"],
 "data": [
  ["C=CC(=C)C", "1660 mg/kg/day"]
]}
